# Tested on: HT-29
# Assay Explanation: Cytotoxicity against human HT-29 cells after 96 hrs by SRB colorimetric assay
# Assay type: functional, cell-based
# Condition: HT-29, 96 h
pIC50: −log10 of the molar value.
pIC50 values, listed per item

Compound String	Readout Qualifier	pIC50
C=C(C)[C@@H]1CC[C@]2(C(=O)OCC(N)(CO)CO)CC[C@]3(C)[C@H](CC[C@@H]4[C@@]5(C)CC[C@H](O)C(C)(C)[C@@H]5CC[C@]43C)[C@@H]12	=	5.05
C=C(C)[C@@H]1CC[C@]2(C(=O)NC(CO)(CO)CO)CC[C@]3(C)[C@H](CC[C@@H]4[C@@]5(C)CC[C@H](OC(C)=O)C(C)(C)[C@@H]5CC[C@]43C)[C@@H]12	=	5.00
C=C(C)[C@@H]1CC[C@]2(C(=O)NC(CO)(CO)CO)CC[C@]3(C)[C@H](CC[C@@H]4[C@@]5(C)CC[C@H](O)C(C)(C)[C@@H]5CC[C@]43C)[C@@H]12	<	4.00
